B1: IgSF (IgI3) domain of β protein, recombinant, biotinylated [modified: biotin, C-terminal] [Streptococcus agalactiae (GBS)] / recombinant CEACAM1 N-terminal domain, unglycosylated, 6xHis tagged [human] (parent complex)
chain 1: ANENNQQKIELTVSPENITVYEGEDVKFTVTAKSDSKTTLDFSDLLTKYNPSVSDRISTNYKTNTDNHKIAEITIKNLKLNESQTVTLKAKDDSGNVVEKTFTITVQKKEEKQLPSTGGS
chain 2: MAQLTTESMPFNVAEGKEVLLLVHNLPQQLFGYSWYKGERVDGNRQIVGYAIGTQQATPGPANSGRETIYPNASLLIQNVTQNDTGFYTLQVIKSDLVNEEATGQFHVY

variants of: B1; assay: flow cytometry on coated dynabeads; parent: 800; read off a plot
Give measured response for each item. Keep answers brief.

>>> measurement("chain 2 V98A")
"~590 Geometric MFI"
>>> measurement("chain 2 N99A")
"~540 Geometric MFI"
>>> measurement("chain 2 F31A")
"~390 Geometric MFI"
>>> measurement("chain 2 I93A")
"~240 Geometric MFI"
>>> measurement("chain 2 L97A")
"~450 Geometric MFI"

Batch of 2 variants: report response for each.
1. chain 2 Q46A
2. chain 2 Q91A

~510 Geometric MFI
~230 Geometric MFI
